- measurementTarget: FLIP-SA (ECFP-SiaP-Venus); sialic acid periplasmic binding protein SiaP (Haemophilus influenzae, UniProt P44542, E90N)
- Sequence (P44542 24-329 E90N): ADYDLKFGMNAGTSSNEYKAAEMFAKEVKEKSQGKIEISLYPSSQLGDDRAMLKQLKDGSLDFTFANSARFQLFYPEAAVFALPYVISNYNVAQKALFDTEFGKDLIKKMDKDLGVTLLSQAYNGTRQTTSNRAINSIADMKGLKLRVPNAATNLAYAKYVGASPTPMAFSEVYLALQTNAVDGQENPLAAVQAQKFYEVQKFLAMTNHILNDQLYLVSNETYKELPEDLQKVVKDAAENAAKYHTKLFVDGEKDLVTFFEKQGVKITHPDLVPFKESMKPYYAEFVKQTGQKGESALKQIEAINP
- conditionNotes: PBS 20 mM, pH 6.5-7.0; sensor 0.20 mg/ml
metricName: Kd (µM)

{"columns": ["molecule", "metricName", "u", "value"],
 "data": [
  ["CC(=O)N[C@H]1[C@H]([C@H](O)[C@H](O)CO)OC(O)(C(=O)O)C[C@@H]1O (stereo partly shown)", "Kd", "µM", 600]
]}

---

- measurementTarget: FLIP-SA (ECFP-SiaP-Venus); sialic acid periplasmic binding protein SiaP (Haemophilus influenzae, UniProt P44542)
- Construct: SiaP without signal peptide and stop codon, inserted at KpnI site between ECFP (N-term) and Venus (C-term); His6 tag of pRSET-B; E. coli BL21(DE3), Ni-NTA
- Sequence (P44542 24-329): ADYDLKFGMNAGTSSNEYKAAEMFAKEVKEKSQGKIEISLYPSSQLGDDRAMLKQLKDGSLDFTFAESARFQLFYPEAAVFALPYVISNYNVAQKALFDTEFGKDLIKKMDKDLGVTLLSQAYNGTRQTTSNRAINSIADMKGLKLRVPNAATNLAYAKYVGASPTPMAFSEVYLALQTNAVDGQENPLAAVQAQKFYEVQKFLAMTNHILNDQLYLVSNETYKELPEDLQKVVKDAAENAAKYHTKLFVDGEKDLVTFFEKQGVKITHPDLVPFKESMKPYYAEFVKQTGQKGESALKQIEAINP
- experimentalProtocol: FRET ratio ([…] nm) titration of purified ECFP-SiaP-Venus sensor
- conditionNotes: PBS 20 mM, pH 6.5-7.0; sensor 0.20 mg/ml; NeuAc 1 nM-1 M; text prints ~157 μM
pKd: −log10 of the molar value.

{"columns": ["molecule", "pKd"],
 "data": [
  ["CC(=O)N[C@H]1[C@H]([C@H](O)[C@H](O)CO)OC(O)(C(=O)O)C[C@@H]1O (stereo partly shown)", 3.80]
]}

---

- measurementTarget: FLIP-SA (ECFP-SiaP-Venus); sialic acid periplasmic binding protein SiaP (Haemophilus influenzae, UniProt P44542, D72K)
- Sequence (P44542 24-329 D72K): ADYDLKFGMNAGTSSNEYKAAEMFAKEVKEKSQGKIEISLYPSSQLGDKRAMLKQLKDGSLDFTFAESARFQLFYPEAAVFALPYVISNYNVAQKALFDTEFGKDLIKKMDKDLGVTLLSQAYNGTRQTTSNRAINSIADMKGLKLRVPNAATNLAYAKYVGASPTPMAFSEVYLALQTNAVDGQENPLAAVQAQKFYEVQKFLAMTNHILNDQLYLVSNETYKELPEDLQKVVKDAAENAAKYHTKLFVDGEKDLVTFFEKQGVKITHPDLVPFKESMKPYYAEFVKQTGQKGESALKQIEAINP
- conditionNotes: PBS 20 mM, pH 6.5-7.0; sensor 0.20 mg/ml

{"columns": ["compound", "Kd (nM)"],
 "data": [
  ["CC(=O)N[C@H]1[C@H]([C@H](O)[C@H](O)CO)OC(O)(C(=O)O)C[C@@H]1O (stereo partly shown)", 13]
]}

---

- measurementTarget: FLIP-SA (ECFP-SiaP-Venus); sialic acid periplasmic binding protein SiaP (Haemophilus influenzae, UniProt P44542, R150D)
- Sequence (P44542 24-329 R150D): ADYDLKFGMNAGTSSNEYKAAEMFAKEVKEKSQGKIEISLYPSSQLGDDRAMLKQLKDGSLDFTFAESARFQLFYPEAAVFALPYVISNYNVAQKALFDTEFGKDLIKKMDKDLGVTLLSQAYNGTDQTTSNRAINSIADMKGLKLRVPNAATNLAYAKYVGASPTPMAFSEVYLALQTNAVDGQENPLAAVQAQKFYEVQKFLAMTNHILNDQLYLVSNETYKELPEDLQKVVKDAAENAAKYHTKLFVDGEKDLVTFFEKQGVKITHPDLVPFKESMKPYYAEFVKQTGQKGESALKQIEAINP
- conditionNotes: PBS 20 mM, pH 6.5-7.0; sensor 0.20 mg/ml

{"columns": ["molecule", "u", "Kd"],
 "data": [
  ["CC(=O)N[C@H]1[C@H]([C@H](O)[C@H](O)CO)OC(O)(C(=O)O)C[C@@H]1O (stereo partly shown) [NeuAc]", "µM", 0.51]
]}
